Recorded values, source patent US20190134005A1.

target: human CGT (Homo sapiens, UniProt Q16880)
protocol: Assay 1: CGT Enzymatic Assay (RapidFire/MS/MS, 0.01% Tween 80)
Type: biochemical
condition-notes: Table 1, Compounds of Formula (I) and Formula (II); CGT enzymatic assay; read-out: IC50
pIC50: −log10 of the molar value.
reported-property: pIC50

# compound, pIC50
records = [
    ("COC[C@H]1N(c2ccc(Cl)cc2)C(=O)N(c2ccc(Cl)cc2)C1(O)c1cccc(OC(F)F)c1 (stereo partly shown)", "> 6.00"),
    ("O=C1N(c2ccc(Cl)cc2)[C@H](C2CCC2)C(O)(c2cccc(OC(F)(F)F)c2)N1c1ccc(Cl)cc1 (stereo partly shown)", "> 6.00"),
    ("COc1cccc([C@]2(C)C(O)N(c3ccc(Br)cc3)C(=O)N2c2ccc(Br)cc2)c1 (single isomer, unassigned)", "> 6.00"),
    ("CC[C@@H]1N(c2ccc(Br)cc2)C(=O)N(c2ccc(Br)cc2)C1(O)c1cccc(C(F)(F)F)c1 (stereo partly shown)", "> 6.00"),
    ("N#Cc1cccc(C2(O)N(c3ccc(C(F)(F)F)cc3)C(=O)N(c3ccc(C(F)(F)F)cc3)C23CCC3)c1 (stereo not shown)", "> 6.00"),
]

Reported pIC50 of C[C@]1(c2cccc(C(F)(F)F)c2)C(O)N(c2ccc(Br)cc2)C(=O)N1c1ccc(Br)cc1 (stereo partly shown) : 4.30 to 5.00

Entry under test: CC1(c2cccc(Cl)c2)C(O)N(c2ccc(Cl)cc2)C(=O)N1c1ccc(Cl)cc1 (stereo not shown) . Its pIC50 was > 6.00

Entry CCc1c(-c2cccc(C#N)c2)n(-c2ccc(Cl)cc2)c(=O)n1-c1ccc(Cl)cc1 ; pIC50 = > 6.00

###

target: human CGT (Homo sapiens, UniProt Q16880)
protocol: Assay 1: CGT Enzymatic Assay (RapidFire/MS/MS, 0.01% Tween 80)
Type: biochemical
condition-notes: Table 1, Compounds of Formula (I) and Formula (II); CGT enzymatic assay; read-out: IC50
pIC50: −log10 of the molar value.
reported-property: pIC50

# molecule, pIC50
records = [
    ("O=C1N(c2ccc(Br)cc2)CC(O)(c2nc3ccccc3s2)N1c1ccc(Br)cc1 (stereo not shown)", "< 4.30"),
    ("CC1N(c2ccc(Br)cc2)C(=O)N(c2ccc(Br)cc2)C1(O)c1ccccc1 (stereo not shown)", "> 6.00"),
    ("CCC1N(c2ccc(Cl)cc2)C(=O)N(c2ccc(Cl)cc2)C1(O)c1cccc(OC(F)F)c1 (stereo not shown)", "> 6.00"),
]

pIC50 in this record for CC(C)c1c(-c2cccc(C#N)c2)n(-c2ccc(Cl)cc2)c(=O)n1-c1ccc(Cl)cc1 : > 6.00

Value of pIC50 reported for the molecule CC(C)C1N(c2ccc(C(F)(F)F)cc2)C(=O)N(c2ccc(C(F)(F)F)cc2)C1(O)c1cccc(OC(F)(F)F)c1 (stereo not shown) is > 6.00

Sample N#Cc1cccc(C2(O)[C@H](CC3CC3)N(c3ccc(Cl)cc3)C(=O)N2c2ccc(Cl)cc2)c1 (single isomer, unassigned) ; pIC50 observed: 5.00 to 6.00

For this molecule ( CC(=O)c1cccc(C2(O)[C@H](C)N(c3ccc(Cl)cc3)C(=O)N2c2ccc(Cl)cc2)c1 (single isomer, unassigned) ), measured pIC50 is 5.00 to 6.00

###

target: human CGT (Homo sapiens, UniProt Q16880)
protocol: Assay 1: CGT Enzymatic Assay (RapidFire/MS/MS, 0.01% Tween 80)
Assay type: biochemical
condition-notes: Table 1, Compounds of Formula (I) and Formula (II); CGT enzymatic assay; read-out: IC50
pIC50: −log10 of the molar value.
Listed below: pIC50 values for each entry.

Consider the reported pIC50 for these compounds:
# compound, pIC50
data = [
    ("O=C1N(c2ccc(Cl)cc2)C2(CCOC2)C(O)(c2cccc(OC(F)(F)F)c2)N1c1ccc(Cl)cc1 (stereo not shown) [Compound 234]", "> 6.00"),
    ("CCC[C@@H]1N(c2ccc(Cl)cc2)C(=O)N(c2ccc(Cl)cc2)C1(O)c1cccc(OC(F)(F)F)c1 (stereo partly shown) [Compound 91-1]", "> 6.00"),
    ("O=C1N(c2ccc(Cl)cc2)[C@H](C2CC2)C(O)(c2cccc(OC(F)F)c2)N1c1ccc(Cl)cc1 (stereo partly shown) [Compound 233-2]", "> 6.00"),
    ("CC[C@@H]1N(c2ccc(Cl)cc2)C(=O)N(c2ccc(Cl)cc2)C1(O)c1cccc(C#N)c1 (single isomer, unassigned) [Compound 106-1]", "> 6.00"),
    ("Cc1ccc(N2C(=O)N(c3ccc(C)cc3)C(O)(c3cccc(OC(F)(F)F)c3)C2C(C)C)cc1 (stereo not shown) [Compound 235]", "> 6.00"),
    ("CCC[C@H]1N(c2ccc(Cl)cc2)C(=O)N(c2ccc(Cl)cc2)C1(O)c1cccc(C(F)(F)F)c1 (stereo partly shown) [Compound 87-2]", "> 6.00"),
]

Short answer for Cc1ccc(N2CC(O)(c3ccccc3)N(c3ccc(C)cc3)C2=O)cc1 (stereo not shown) [Example 17] : pIC50 was 5.00 to 6.00

###

target: human CGT (Homo sapiens, UniProt Q16880)
protocol: Assay 1: CGT Enzymatic Assay (RapidFire/MS/MS, 0.01% Tween 80)
Format: biochemical
condition-notes: Table 1, Compounds of Formula (I) and Formula (II); CGT enzymatic assay; read-out: IC50
pIC50: −log10 of the molar value.
reported-property: pIC50

Study these solved cases before continuing.
# compound, pIC50
records = [
    ("Cc1ccc(N2C(=O)N(c3ccc(C)cc3)C(O)(c3cccc(C#N)c3)[C@H]2C)cc1 (single isomer, unassigned) [Compound 105-2]", "> 6.00"),
    ("CC[C@@H]1N(c2ccc(Cl)cc2)C(=O)N(c2ccc(Cl)cc2)C1(O)c1cccc(OC(F)F)c1 (stereo partly drawn) [Compound 118-1]", "> 6.00"),
    ("O=C1N(c2ccccc2)C(=O)C(O)(c2ccc(OC3CC3)cc2)N1c1ccccc1 (stereo not drawn) [Compound 156]", "< 4.30"),
    ("Cc1ccc(N2C(=O)N(c3ccc(C)cc3)C(O)(c3cccc(OC(F)(F)F)c3)[C@@H]2C(C)C)cc1 (single isomer, unassigned) [Compound 235-1]", "> 6.00"),
]

Documented pIC50 of O=C1N(c2ccc(Cl)cc2)C(=O)C(O)(c2ccc(Cl)cc2)N1c1ccc(Cl)cc1 (stereo not drawn) [Compound 154] : 4.00 to 4.30

response.value for O=C1N(c2ccc(Cl)cc2)CC(O)(c2cc(Cl)cc(Br)c2)N1c1ccc(Cl)cc1 (stereo not drawn) [Compound 98] (field: pIC50) = 5.00 to 6.00

pIC50 reading for CC1(c2cccc(C(F)(F)F)c2)C(O)N(c2ccc(Cl)cc2)C(=O)N1c1ccc(Cl)cc1 (stereo not drawn) [Example 190] : > 6.00

response.value for CCCc1c(-c2ccccc2)n(-c2ccc(Br)cc2)c(=O)n1-c1ccc(Br)cc1 [Compound 261] (field: pIC50) = 5.00 to 6.00

get_value(item= O=C1N(c2ccc(Br)cc2)C(=O)C(O)(c2cc3ccccc3o2)N1c1ccc(Br)cc1 (stereo not drawn) [Example 213] , readout=pIC50) returns < 4.30

###

The entries below come with measured pIC50 values attached.
target: human CGT (Homo sapiens)
Sequence (Q16880 21-541): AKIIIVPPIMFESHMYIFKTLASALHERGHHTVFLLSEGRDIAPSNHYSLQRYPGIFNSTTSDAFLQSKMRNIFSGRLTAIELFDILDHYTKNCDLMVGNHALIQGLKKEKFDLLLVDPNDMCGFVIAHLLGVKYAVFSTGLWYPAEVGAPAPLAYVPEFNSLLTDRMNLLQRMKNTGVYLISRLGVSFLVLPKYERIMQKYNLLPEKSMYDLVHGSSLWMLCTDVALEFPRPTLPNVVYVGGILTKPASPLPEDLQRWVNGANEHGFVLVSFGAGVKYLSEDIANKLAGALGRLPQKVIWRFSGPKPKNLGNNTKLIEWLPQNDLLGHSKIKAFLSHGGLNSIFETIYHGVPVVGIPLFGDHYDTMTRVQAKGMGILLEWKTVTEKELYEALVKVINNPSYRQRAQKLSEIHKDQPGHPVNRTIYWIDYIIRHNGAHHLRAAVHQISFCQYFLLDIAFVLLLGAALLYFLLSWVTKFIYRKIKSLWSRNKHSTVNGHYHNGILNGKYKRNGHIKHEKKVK
protocol: Assay 1: CGT Enzymatic Assay (RapidFire/MS/MS, 0.01% Tween 80)
Format: biochemical
condition-notes: Table 1, Compounds of Formula (I) and Formula (II); CGT enzymatic assay; read-out: IC50
pIC50: −log10 of the molar value.

The reported pIC50 of the compound N#Cc1cccc(C2(O)N(c3ccc(Cl)cc3)C(=O)N(c3ccc(Cl)cc3)C23CCOC3)c1 (stereo not drawn) [Example 221] was > 6.00

Sure, the documented pIC50 for CCC1N(c2ccc(Br)cc2)C(=O)N(c2ccc(Br)cc2)C1(O)c1cccc(OC(F)(F)F)c1 (stereo in doubt) [Compound 83-2] is > 6.00

// field: pIC50; key: CCC[C@@H]1N(c2ccc(Cl)cc2)C(=O)N(c2ccc(Cl)cc2)C1(O)c1cccc(C)c1 (stereo partly drawn) [Compound 90-1] ; value = > 6.00
